Below are IC50 values for CREB-binding protein (Homo sapiens) collected from several publications.
measured_quantity: IC50 (nM)

// known answers, use as guide
| molecule | IC50 (nM) |
| --- | --- |
| CC(C)(C(=O)N1C[C@H](F)C[C@@H]1C(=O)Nc1ccc2[nH]ncc2n1)c1ccc(OC(F)(F)F)cc1 | 75 |
| Cc1cc(N2C(=O)c3c(C4CNC4)cn(C)c3C2c2ccc(Cl)cc2)nc2c1nnn2C (stereo not shown) | 12800 |
| COc1ccc(C2(C(=O)N3CC[C@@H](O)[C@@H]3C(=O)Nc3ccc4[nH]ccc4n3)CCC(F)(F)CC2)cc1 | 86 |
| CN1CCN(c2ccc3c(c2)n(C)c(=O)n3C)c2cc(C(F)(F)F)c(-c3cnn(C)c3)cc21 | 30 |
| CNC(=O)N1CCOc2ccc(-c3c(C)ccc4c3cnn4C)cc2C1 | 57 |

a. Cc1cc(N2CCCc3cc(-c4cnn(C)c4)c(C(F)F)cc32)cc2c1n(C)c(=O)n2C
b. CCOC(=O)n1c(-c2cccnc2OC)c(C)c2c1C(c1ccc(Cl)cc1)N(c1cc(C)c3nnc(C)n3c1)C2=O (stereo not shown)
**Query** In the pair a and b , the larger recorded IC50 belongs to which? # respond with the chosen item's label
**Result** b

1. COc1ccc(C2(C(=O)N3C[C@H](F)C[C@@H]3C(=O)Nc3ccc4[nH]ncc4n3)CC(C)(C)C2)cc1
2. CNC(=O)N1CCOc2ccc(-c3c(C)ccc(-c4cnn(C)c4)c3C(F)F)cc2C1
3. Cc1cn(C)c2c1C(=O)N(c1cc(C)c3nnc(C)n3c1)C2c1ccc(Cl)cc1 (stereo not shown)
**Query** rank_up(items): orders items by reported IC50 in ascending numerical order. Arrange the labels as the request states and list them.
**Result** 1, 2, 3

1. CNC(=O)c1cn(C)c2ccc(-c3cccc4cc(-c5cnn(C)c5)ncc34)cc12
2. CNC(=O)[C@H]1CCc2ccc(N3CCCc4cc(-c5cnn(C)c5)c(C(F)F)cc43)nc21
**Query** Hello, I am sorting some records. Could you say if 1 or 2 has the smaller IC50 value? Answer by quoting the chosen item's label.
**Result** 1
(1: 22 nM, 2: 40 nM)

1. Cn1cc(-c2cc3c(cc2C(F)F)N(c2cc4c(cc2F)n(C)c(=O)n4C)CCC3)cn1
2. COc1ccc(C(C)(C)C(=O)N2C[C@H](F)C[C@@H]2C(=O)Nc2ccc3[nH]ncc3n2)cc1
**Query** Which gives the smaller IC50 number: 1 or 2 ? # reply format: chosen label
**Result** 1

====

pIC50: −log10 of the molar value.
pIC50 values for CREB-binding protein (Homo sapiens), compiled from several publications.
measured_quantity: pIC50

Field: example entries. Status: answers known.
| molecule | experimental_system | measured_quantity | numeric_readout |
| --- | --- | --- | --- |
| COCO[C@@H]1CN(C(=O)C2(c3ccc(OC)cc3)CCC(F)(F)CC2)[C@H]1C(=O)Nc1ccc2[nH]ncc2n1 | CREB-binding protein (Homo sapiens) | pIC50 | 5.66 |
| CNC(=O)c1ccc2nccc(N3CCCc4cc(-c5cnn(C)c5)ccc43)c2c1 | CREB-binding protein (Homo sapiens) | pIC50 | 6.80 |
| CC1C(=O)N(C)c2cc(N3CCCc4cc(-c5cnn(C)c5)c(C(F)F)cc43)ccc21 (stereo in doubt) | CREB-binding protein (Homo sapiens) | pIC50 | 7.38 |

A. COc1ccc(C2(C(=O)N3C[C@H](F)C[C@@H]3C(=O)Nc3cc4ccccn4n3)CCCCC2)cc1
B. COc1ccc(C2(C(=O)N(C)CC(=O)Nc3cccc4[nH]ncc34)CCCCC2)cc1
C. COc1ccc(C2(C(=O)N3CS(=O)(=O)C[C@@H]3C(=O)Nc3ccc4[nH]ncc4n3)CCCCC2)cc1
D. CNC(=O)N1CCOc2ccc(-c3cncc4ccccc34)cc2C1
E. COc1ncccc1-c1c(C2CC2)c2c(n1C)C(c1ccc(Cl)cc1)N(c1cc(C)c3nnc(C)n3c1)C2=O (centres unmarked)
**Query** # sort list by recorded pIC50, greatest to least List the labels in the requested order.
**Result** C, A, B, D, E
(C: 7.54, A: 7.28, B: 6.89, D: 6.55, E: 5.80)

====

pIC50: −log10 of the molar value.
A compilation of pIC50 values for CREB-binding protein (Homo sapiens, UniProt Q92793) from the published literature.
measured_quantity: pIC50

| molecule | pIC50 |
| --- | --- |
| Cn1c(-c2ccc(=O)n(C)c2)cc2c1C(c1ccc(Cl)cc1)N(c1cc(Cl)c(=O)n(C)c1)C2=O (stereo not shown) | 6.51 |

I. O=C(Nc1ccc2[nH]ncc2n1)[C@H]1[C@H](O)[C@@H](F)CN1C(=O)C1(c2ccc(OC(F)F)cc2)CCC(F)(F)CC1
II. CNC(=O)N1CCOc2ccc(-c3cccc4ncccc34)cc2C1
III. CNC(=O)c1c[nH]c2c(C(C)C)cc(N3CCCc4cc(-c5cnn(C)c5)c(C(F)F)cc43)cc12
**Query** Please list these in order of increasing pIC50. Thank you! Reply: labels, ordered per the request.
**Result** II, I, III

====

UniProt Q92793 IC50, compiled from various sources.
measured_quantity: IC50 (nM)

| compound | numeric_readout |
| --- | --- |
| CCn1c(=O)n(C)c2cc(N3CCCc4cc(-c5cnn(C)c5)c(C(F)F)cc43)ccc21 | 172 |

I. Cn1cc(-c2cc3c(n2C2CC2)C(c2ccc(Cl)cc2)N(c2cc(Cl)c(=O)n(C)c2)C3=O)ccc1=O (stereo not shown)
II. COc1ccc(C2(C(=O)N3C[C@H](F)C[C@@H]3C(=O)Nc3cccc4[nH]ncc34)CCCCO2)cc1 (single isomer, unassigned)
III. Cc1cc2c(cc1N1CCCc3cc(-c4cnn(C)c4)c(C(F)F)cc31)n(C)c(=O)n2C
**Query** Order the records, beginning with the lowest IC50 and ending with the highest. # output: labels, in the requested order
**Result** III, II, I
(III: 13 nM, II: 48 nM, I: 240 nM)

====

Literature roundup of CREB-binding protein (Homo sapiens, UniProt Q92793) data, read-out IC50.
measured_quantity: IC50 (nM)

Example results:
| molecule | unit_text | IC50 |
| --- | --- | --- |
| CCC(=O)N1CCOc2ccc(N3CCCc4cc(-c5cnn(C)c5)c(C(F)F)cc43)cc2C1 | nM | 22 |
| COc1c(F)cc(C2(C(=O)N3C[C@H](F)C[C@@H]3C(=O)Nc3ccc4[nH]ncc4n3)CCC(F)(F)CC2)cc1F | nM | 87 |
| CS(=O)(=O)Nc1ccc(C2(C(=O)N3C[C@H](F)C[C@@H]3C(=O)Nc3ccc4[nH]ncc4n3)CCC(F)(F)CC2)cc1 | nM | 84 |
| CC(=O)N1CC(n2cc(C)c3c2C(c2ccc(Cl)cc2)N(c2cc(C)c4nnc(C)n4c2)C3=O)C1 (stereo not shown) | nM | 7600 |
| COc1ccc(C2(C(=O)N(C)[C@H](CCO)C(=O)Nc3ccc4[nH]ncc4n3)CCC(F)(F)CC2)cc1 | nM | 239 |
| COc1ncccc1-c1cc2c(n1C)C(c1ccc(Cl)cc1)N(c1cc(C)c3nnc(C)n3c1)C2=O (stereo not shown) | nM | 1300 |
| O=C(Nc1ccc2[nH]ncc2n1)[C@H]1C[C@@H](F)CN1C(=O)C1(c2ccc(OCF)cc2)CCC(F)(F)CC1 | nM | 34 |
| C[C@H]1Oc2c(cccc2N2CCCc3cc(-c4cnn(C)c4)c(C(F)F)cc32)NC1=O | nM | 77 |

a. CCc1cc2c(cc1N1CCCc3cc(-c4cnn(C)c4)c(C(F)F)cc31)n(C)c(=O)n2C
b. C=C(C)c1cc(N2CCCc3cc(-c4cnn(C)c4)c(C(F)F)cc32)cc2c(C(=O)NC)cn(C)c12
**Query** IC50 comparison. Which is larger, a or b ? Reply briefly: the label of your chosen item.
**Result** a
(a: 39 nM, b: 16 nM)

P. Cc1cc(N2C(=O)c3cc(-c4cccc(=O)n4C)n(C4CC4)c3C2c2ccc(Cl)cc2)cn(C)c1=O (stereo not shown)
Q. CNC(=O)c1c[nH]c2ccc(N3CCCc4cc(-c5cnn(C)c5)ccc43)cc12
**Query** Record comparison, field IC50: mark the lower of P and Q . Your answer should be the label of the entry you select.
**Result** Q
(Q: 48 nM, P: 180 nM)

A. COc1cc(N2CCCc3cc(-c4cnn(C)c4)c(C(F)F)cc32)cc2c1n(C)c(=O)n2C
B. Cc1cc(N2C(=O)c3ccn(C(=O)N(C)C)c3C2c2ccc(Cl)cc2)cn2c(C)nnc12 (stereo not shown)
C. CNC(=O)c1cn(C)c2cnc(N3CCCc4cc(-c5cnn(C)c5)c(C(F)F)cc43)nc12
D. COc1ccc(C2(C(=O)N(C)[C@@H](C(=O)Nc3ccc4[nH]ncc4n3)[C@H](C)O)CCC(F)(F)CC2)cc1
E. O=C(Nc1ccc2[nH]ncc2n1)[C@H]1C[C@@H](F)CN1C(=O)C1(c2ccc(OCF)c(F)c2)CC(F)(F)C1
**Query** Please produce an ascending ranking of these molecules based on IC50. # the answer lists labels in the order requested
**Result** A, C, E, D, B
